Cited source: patent US10538554B2

- System: H3N8 A/Miami/2/63
- run_conditions: A/Miami/2/63, 48 h, 500 μM
Bridge positions count the residues as written; N and C are the ends. Square brackets hold non-standard residues; d marks the D form. Peptide text beside a SMILES is read from it.

# molecule, % inhibition H3N8 [%]
data = [
    ("CSCC[C@H]1NC(=O)[C@@H](Cc2ccccc2)NC(=O)[C@@H](CCCNC(=N)N)NC(=O)[C@@H](CO)NC(=O)[C@@H](CCCCN)NC(=O)[C@@H]([C@H](C)O)NC(=O)[C@H](N)CSSC[C@H](C(=O)O)NC(=O)[C@@H](CC(N)=O)NC1=O [PSP 11, H-ctksrfmnc-OH] (H-[dC][dT][dK][dS][dR][dF][dM][dN][dC]-OH; disulfide 1-9)", 67),
]

====

- System: H1N1 A/PR/8/1934
- run_conditions: A/PR/8/1934, 48 h, 1 μM
Bridge positions count the residues as written; N and C are the ends. Square brackets hold non-standard residues; d marks the D form. Peptide text beside a SMILES is read from it.

# compound, readout_qualifier, % Inhibition (%)
records = [
    ("CC[C@@H](C)[C@H]1NC(=O)[C@@H](Cc2ccccc2)NC(=O)[C@@H]([C@H](C)O)NC(=O)[C@@H](Cc2ccccc2)NC(=O)[C@@H](Cc2c[nH]c3ccccc23)NC(=O)[C@@H](Cc2c[nH]c3ccccc23)NC(=O)[C@H](NC(=O)[C@H](CCCCN)NC(=O)[C@H](CCCCN)NC(=O)[C@H](CCCNC(=N)N)NC(=O)[C@@H](N)CCCNC(=N)N)CSSC[C@H](C(=O)O)NC(=O)[C@@H]([C@H](C)CC)NC1=O [PSP VI A8, H-RRKKcwwftfiic-OH] (H-RRKK[dC][dW][dW][dF][dT][dF][dI][dI][dC]-OH; disulfide 5-13)", "=", 49),
    ("CC[C@@H](C)[C@H]1NC(=O)[C@@H](Cc2ccccc2)NC(=O)[C@@H]([C@H](C)O)NC(=O)[C@@H](Cc2ccccc2)NC(=O)[C@@H](Cc2c[nH]c3ccccc23)NC(=O)[C@@H]([C@H](C)O)NC(=O)[C@H](NC(=O)[C@H](CCCCN)NC(=O)[C@H](CCCCN)NC(=O)[C@H](CCCNC(=N)N)NC(=O)[C@@H](N)CCCNC(=N)N)CSSC[C@H](C(=O)O)NC(=O)[C@@H](CC(N)=O)NC1=O [PSP IV A17, H-RRKKctwftfinc-OH] (H-RRKK[dC][dT][dW][dF][dT][dF][dI][dN][dC]-OH; disulfide 5-13)", "<", 20),
]

====

The entries below are paired with their reported % inhibition H3N8.
- System: H3N8 A/Miami/2/63
- run_conditions: A/Miami/2/63, 48 h, 500 μM
Bridge positions count the residues as written; N and C are the ends. Square brackets hold non-standard residues; d marks the D form. Peptide text beside a SMILES is read from it.

# compound, % inhibition H3N8, %
rows = [
    ("C[C@H](O)[C@H]1NC(=O)[C@H](N)CSSC[C@H](C(=O)O)NC(=O)[C@@H](CC(N)=O)NC(=O)[C@@H]([C@H](C)O)NC(=O)[C@@H](Cc2ccccc2)NC(=O)[C@@H](CCCNC(=N)N)NC(=O)[C@@H](CO)NC(=O)[C@@H](CCCCN)NC1=O [PSP 17, H-ctksrftnc-OH] (H-[dC][dT][dK][dS][dR][dF][dT][dN][dC]-OH; disulfide 1-9)", 74.2),
    ("CC[C@@H](C)[C@H]1NC(=O)[C@@H](Cc2ccccc2)NC(=O)[C@@H](CCCNC(=N)N)NC(=O)[C@@H](CO)NC(=O)[C@@H](CCCCN)NC(=O)[C@@H]([C@H](C)O)NC(=O)[C@H](NC(=O)[C@@H](CCCCN)NC(=O)[C@@H](CCCCN)NC(=O)[C@@H](CCCNC(=N)N)NC(=O)[C@H](N)CCCNC(=N)N)CSSC[C@H](C(=O)O)NC(=O)[C@@H](CC(N)=O)NC1=O [PSP II A9, H-rrkkctksrfinc-OH] (H-[dR][dR][dK][dK][dC][dT][dK][dS][dR][dF][dI][dN][dC]-OH; disulfide 5-13)", 77.8),
]

====

The entries below are paired with their reported % Inhibition.
- System: H1N1 A/PR/8/1934
- run_conditions: A/PR/8/1934, 48 h, 1 μM
Bridge positions count the residues as written; N and C are the ends. Square brackets hold non-standard residues; d marks the D form. Peptide text beside a SMILES is read from it.
measured_metric: % Inhibition (%)

# compound, measured_metric, experimental_value
rows = [
    ("CC[C@@H](C)[C@H]1NC(=O)[C@@H](Cc2ccccc2)NC(=O)[C@@H]([C@H](C)O)NC(=O)[C@@H](Cc2ccccc2)NC(=O)[C@@H](Cc2c[nH]c3ccccc23)NC(=O)[C@@H]([C@H](C)CC)NC(=O)[C@H](NC(=O)[C@H](CCCCN)NC(=O)[C@H](CCCCN)NC(=O)[C@H](CCCNC(=N)N)NC(=O)[C@@H](N)CCCNC(=N)N)CSSC[C@H](C(=O)O)NC(=O)[C@@H](CC(N)=O)NC1=O [PSP V A8, H-RRKKciwftfinc-OH] (H-RRKK[dC][dI][dW][dF][dT][dF][dI][dN][dC]-OH; disulfide 5-13)", "% Inhibition", 20),
    ("CC[C@@H](C)[C@H]1NC(=O)[C@@H](Cc2ccccc2)NC(=O)[C@@H]([C@H](C)O)NC(=O)[C@@H](Cc2ccccc2)NC(=O)[C@@H](Cc2c[nH]c3ccccc23)NC(=O)[C@@H](Cc2c[nH]c3ccccc23)NC(=O)[C@H](NC(=O)[C@H](CCCCN)NC(=O)[C@H](CCCCN)NC(=O)[C@H](CCCNC(=N)N)NC(=O)[C@@H](N)CCCNC(=N)N)CSSC[C@H](C(=O)O)NC(=O)[C@@H](CO)NC1=O [PSP VI A16, H-RRKKcwwftfisc-OH] (H-RRKK[dC][dW][dW][dF][dT][dF][dI][dS][dC]-OH; disulfide 5-13)", "% Inhibition", 74),
    ("CC[C@@H](C)[C@H]1NC(=O)[C@@H](Cc2ccccc2)NC(=O)[C@@H]([C@H](C)O)NC(=O)[C@@H](Cc2ccccc2)NC(=O)[C@@H](Cc2c[nH]c3ccccc23)NC(=O)[C@@H](CC(C)C)NC(=O)[C@H](NC(=O)[C@H](CCCCN)NC(=O)[C@H](CCCCN)NC(=O)[C@H](CCCNC(=N)N)NC(=O)[C@@H](N)CCCNC(=N)N)CSSC[C@H](C(=O)O)NC(=O)[C@@H](CC(N)=O)NC1=O [PSP V A10, H-RRKKclwftfinc-OH] (H-RRKK[dC][dL][dW][dF][dT][dF][dI][dN][dC]-OH; disulfide 5-13)", "% Inhibition", 65),
    ("CC[C@@H](C)[C@H]1NC(=O)[C@@H](Cc2ccccc2)NC(=O)[C@@H]([C@H](C)O)NC(=O)[C@@H](Cc2ccccc2)NC(=O)[C@@H](Cc2c[nH]c3ccccc23)NC(=O)[C@@H](Cc2c[nH]c3ccccc23)NC(=O)[C@H](NC(=O)[C@H](CCCCN)NC(=O)[C@H](CCCCN)NC(=O)[C@H](CCCNC(=N)N)NC(=O)[C@@H](N)CCCNC(=N)N)CSSC[C@H](C(=O)O)NC(=O)[C@@H](CC(N)=O)NC1=O [PSP V A19, H-RRKKcwwftfinc-OH] (H-RRKK[dC][dW][dW][dF][dT][dF][dI][dN][dC]-OH; disulfide 5-13)", "% Inhibition", 97),
]

====

- Test system: H1N1 A1/Malaysia/302/1954
- run_conditions: A1/Malaysia/302/1954, 48 h, 10 μM
Bridge positions count the residues as written; N and C are the ends. Square brackets hold non-standard residues; d marks the D form. Peptide text beside a SMILES is read from it.
The entries below are paired with their reported % inhibition H1N1.

# molecule, % inhibition H1N1
records = [
    ("CC[C@@H](C)[C@H]1NC(=O)[C@@H](Cc2ccccc2)NC(=O)[C@@H](CCCCN)NC(=O)[C@@H](Cc2ccccc2)NC(=O)[C@@H](Cc2c[nH]c3ccccc23)NC(=O)[C@@H]([C@H](C)O)NC(=O)[C@H](NC(=O)[C@H](CCCCN)NC(=O)[C@H](CCCCN)NC(=O)[C@H](CCCNC(=N)N)NC(=O)[C@@H](N)CCCNC(=N)N)CSSC[C@H](C(=O)O)NC(=O)[C@@H](CC(N)=O)NC1=O [PSP IV A9, H-RRKKctwfkfinc-OH] (H-RRKK[dC][dT][dW][dF][dK][dF][dI][dN][dC]-OH; disulfide 5-13)", "56%"),
    ("CC[C@@H](C)[C@H]1NC(=O)[C@@H](Cc2ccccc2)NC(=O)[C@@H](CC(C)C)NC(=O)[C@@H](Cc2ccccc2)NC(=O)[C@@H](Cc2c[nH]c3ccccc23)NC(=O)[C@@H]([C@H](C)O)NC(=O)[C@H](NC(=O)[C@H](CCCCN)NC(=O)[C@H](CCCCN)NC(=O)[C@H](CCCNC(=N)N)NC(=O)[C@@H](N)CCCNC(=N)N)CSSC[C@H](C(=O)O)NC(=O)[C@@H](CC(N)=O)NC1=O [PSP IV A10, H-RRKKctwflfinc-OH] (H-RRKK[dC][dT][dW][dF][dL][dF][dI][dN][dC]-OH; disulfide 5-13)", "90%"),
    ("CC[C@@H](C)[C@H]1NC(=O)[C@@H](Cc2ccccc2)NC(=O)[C@@H](Cc2ccccc2)NC(=O)[C@@H](Cc2ccccc2)NC(=O)[C@@H](Cc2c[nH]c3ccccc23)NC(=O)[C@@H]([C@H](C)O)NC(=O)[C@H](NC(=O)[C@H](CCCCN)NC(=O)[C@H](CCCCN)NC(=O)[C@H](CCCNC(=N)N)NC(=O)[C@@H](N)CCCNC(=N)N)CSSC[C@H](C(=O)O)NC(=O)[C@@H](CC(N)=O)NC1=O [PSP IV A5, H-RRKKctwfffinc-OH] (H-RRKK[dC][dT][dW][dF][dF][dF][dI][dN][dC]-OH; disulfide 5-13)", "99%"),
    ("CC[C@@H](C)[C@H]1NC(=O)[C@@H](Cc2ccccc2)NC(=O)[C@@H](CCCNC(=N)N)NC(=O)[C@@H](Cc2ccccc2)NC(=O)[C@@H](Cc2c[nH]c3ccccc23)NC(=O)[C@@H]([C@H](C)O)NC(=O)[C@H](NC(=O)[C@H](CCCCN)NC(=O)[C@H](CCCCN)NC(=O)[C@H](CCCNC(=N)N)NC(=O)[C@@H](N)CCCNC(=N)N)CSSC[C@H](C(=O)O)NC(=O)[C@@H](CC(N)=O)NC1=O [PSP III B5, H-RRKKctwfrfinc-OH] (H-RRKK[dC][dT][dW][dF][dR][dF][dI][dN][dC]-OH; disulfide 5-13)", "80%"),
    ("CC[C@@H](C)[C@H]1NC(=O)[C@@H](Cc2ccccc2)NC(=O)CNC(=O)[C@@H](Cc2ccccc2)NC(=O)[C@@H](Cc2c[nH]c3ccccc23)NC(=O)[C@@H]([C@H](C)O)NC(=O)[C@H](NC(=O)[C@H](CCCCN)NC(=O)[C@H](CCCCN)NC(=O)[C@H](CCCNC(=N)N)NC(=O)[C@@H](N)CCCNC(=N)N)CSSC[C@H](C(=O)O)NC(=O)[C@@H](CC(N)=O)NC1=O [PSP IV A6, H-RRKKctwfGfinc-OH] (H-RRKK[dC][dT][dW][dF]G[dF][dI][dN][dC]-OH; disulfide 5-13)", "59%"),
    ("CC[C@@H](C)[C@H]1NC(=O)[C@@H](Cc2ccccc2)NC(=O)[C@@H](CO)NC(=O)[C@@H](Cc2ccccc2)NC(=O)[C@@H](Cc2c[nH]c3ccccc23)NC(=O)[C@@H]([C@H](C)O)NC(=O)[C@H](NC(=O)[C@H](CCCCN)NC(=O)[C@H](CCCCN)NC(=O)[C@H](CCCNC(=N)N)NC(=O)[C@@H](N)CCCNC(=N)N)CSSC[C@H](C(=O)O)NC(=O)[C@@H](CC(N)=O)NC1=O [PSP IV A16, H-RRKKctwfsfinc-OH] (H-RRKK[dC][dT][dW][dF][dS][dF][dI][dN][dC]-OH; disulfide 5-13)", "91%"),
    ("CC[C@@H](C)[C@H]1NC(=O)[C@@H](Cc2ccccc2)NC(=O)[C@@H](CCSC)NC(=O)[C@@H](Cc2ccccc2)NC(=O)[C@@H](Cc2c[nH]c3ccccc23)NC(=O)[C@@H]([C@H](C)O)NC(=O)[C@H](NC(=O)[C@H](CCCCN)NC(=O)[C@H](CCCCN)NC(=O)[C@H](CCCNC(=N)N)NC(=O)[C@@H](N)CCCNC(=N)N)CSSC[C@H](C(=O)O)NC(=O)[C@@H](CC(N)=O)NC1=O [PSP IV A11, H-RRKKctwfmfinc-OH] (H-RRKK[dC][dT][dW][dF][dM][dF][dI][dN][dC]-OH; disulfide 5-13)", "89%"),
    ("CC[C@@H](C)[C@H]1NC(=O)[C@@H](Cc2ccccc2)NC(=O)[C@@H](CC(=O)O)NC(=O)[C@@H](Cc2ccccc2)NC(=O)[C@@H](Cc2c[nH]c3ccccc23)NC(=O)[C@@H]([C@H](C)O)NC(=O)[C@H](NC(=O)[C@H](CCCCN)NC(=O)[C@H](CCCCN)NC(=O)[C@H](CCCNC(=N)N)NC(=O)[C@@H](N)CCCNC(=N)N)CSSC[C@H](C(=O)O)NC(=O)[C@@H](CC(N)=O)NC1=O [PSP IV A3, H-RRKKctwfdfinc-OH] (H-RRKK[dC][dT][dW][dF][dD][dF][dI][dN][dC]-OH; disulfide 5-13)", "49%"),
    ("CC[C@@H](C)[C@H]1NC(=O)[C@@H](Cc2ccccc2)NC(=O)[C@@H](CC(N)=O)NC(=O)[C@@H](Cc2ccccc2)NC(=O)[C@@H](Cc2c[nH]c3ccccc23)NC(=O)[C@@H]([C@H](C)O)NC(=O)[C@H](NC(=O)[C@H](CCCCN)NC(=O)[C@H](CCCCN)NC(=O)[C@H](CCCNC(=N)N)NC(=O)[C@@H](N)CCCNC(=N)N)CSSC[C@H](C(=O)O)NC(=O)[C@@H](CC(N)=O)NC1=O [PSP IV A12, H-RRKKctwfnfinc-OH] (H-RRKK[dC][dT][dW][dF][dN][dF][dI][dN][dC]-OH; disulfide 5-13)", "67%"),
]
